Listed below: IC50 values for each entry.
tested on: U118MG glioblastoma cells; test: MTT cell viability, dark and PDT; format: cell-based, human; conditions: Homo sapiens, U-118-MG, 1 h incubation, 660 nm LED 2 h (NSeMorph) or 1 h (NSeAze), read-out: IC50 (light)
Your answer should be a plain number; it is taken to be in µM.

c1cc2nc3ccc(=[N+]4CCC4)cc-3[se]c2cc1N1CCC1; 0.46

Shift focus to the following entry.
Item c1cc2nc3ccc(=[N+]4CCOCC4)cc-3[se]c2cc1N1CCOCC1 was tested on U118MG glioblastoma cells; the reported IC50 is 8

====

test system: U87MG glioblastoma cells; assay: MTT cell viability, dark and PDT; type: cell-based, human; settings: Homo sapiens, U-87 MG, 1 h incubation, 660 nm LED 2 h (NSeMorph) or 1 h (NSeAze), read-out: IC50 (light)
readout: pIC50
Please keep in mind that pIC50 is minus log10 of the molar concentration; only the number is needed.

c1cc2nc3ccc(=[N+]4CCOCC4)cc-3[se]c2cc1N1CCOCC1; 4.80

Item c1cc2nc3ccc(=[N+]4CCC4)cc-3[se]c2cc1N1CCC1 was tested on U87MG glioblastoma cells; the reported pIC50 is 6.42

====

system: U118MG glioblastoma cells; assay: MTT cell viability, dark and PDT; assay type: cell-based, human; conditions: 1 h incubation, 660 nm LED 2 h (NSeMorph) or 1 h (NSeAze), read-out: IC50 (light)
readout: pIC50
Please keep in mind that pIC50 is minus log10 of the molar concentration; only the number is needed.

The compound c1cc2nc3ccc(=[N+]4CCOCC4)cc-3[se]c2cc1N1CCOCC1 showed pIC50 equal to 5.10
